assay: inhibitors of mutant huntingtin aggregation, primary screen, imaging, exon1htt(103Q)mCFP cells, high-content imaging (AID 483); conditions: exon1htt(103Q)mCFP cell line, aggregate imaging, at 2 µM; measured here: cell count, toxicity;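 note: compound exposure lasted 3 days before fixation; percent of the per-plate median nuclei count of sample wells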

>  <MOLECULE>
COc1ccc(Cn2nnnc2CN2CCOCC2)cc1

>  <nuclei count>
108%

$$$$
>  <MOLECULE>
CCOc1cc(C(=O)NCc2nnc(SCC(=O)OC)n2C)cc(OCC)c1OCC

>  <nuclei count>
55.3%

$$$$
>  <MOLECULE>
COc1ccc(-c2ccc(Nc3ccc(S(=O)(=O)N4CCCC4)cc3)nn2)cc1OC

>  <nuclei count>
103%

$$$$
>  <MOLECULE>
CC(C(N)=O)N1C(=O)C2C3C=CC(C3)C2C1=O (stereo not drawn)

>  <nuclei count>
105%

$$$$
>  <MOLECULE>
O=C(CS(=O)CC(=O)Nc1cccc2c1CCCC2)Nc1ccc(F)cc1 (stereo not drawn)

>  <nuclei count>
84.1%

$$$$
>  <MOLECULE>
Cc1cc(Br)ccc1NC(=O)CNC(=O)CSc1n[nH]c(N)n1

>  <nuclei count>
74.3%

$$$$
>  <MOLECULE>
Cc1cccc(CCNC(=O)C2CCCN(S(=O)(=O)c3cnc[nH]3)C2)c1 (stereo not drawn)

>  <nuclei count>
89.8%

$$$$
>  <MOLECULE>
CCCCc1ccc(NC(=O)N[C@H](C(=O)O)C(C)C)cc1

>  <nuclei count>
89.1%

$$$$
>  <MOLECULE>
CC1=C(C(=O)NC2CCC(C)CC2)C2(CCC(C)CC2)OC1=O (stereo not drawn)

>  <nuclei count>
99.8%

$$$$
>  <MOLECULE>
COC(=O)c1sc2ccccc2c1NC(=O)c1cccs1

>  <nuclei count>
101%

$$$$
>  <MOLECULE>
COc1cccc(C(=O)NC2=NCCS2)c1

>  <nuclei count>
71.6%

$$$$
>  <MOLECULE>
CCCCS(=O)(=O)NC1=NCN(C2CCN(Cc3ccccc3)CC2)CN1

>  <nuclei count>
97.1%

$$$$
>  <MOLECULE>
CCOC(=O)N1CCN(C(=O)c2ccc(CS(=O)(=O)c3c(Cl)cccc3Cl)o2)CC1

>  <nuclei count>
102%

$$$$
>  <MOLECULE>
Cc1ccccc1-c1nc(Cc2ccccc2)no1

>  <nuclei count>
87.9%

$$$$
>  <MOLECULE>
CC1CCCC(C)N1C(=O)COC(=O)c1ccc[nH]c1=O (stereo not drawn)

>  <nuclei count>
98.4%

$$$$
>  <MOLECULE>
CCOC(=O)c1ccc2[nH]c3c(c2c1)CN(C)CC3

>  <nuclei count>
73.1%

$$$$
>  <MOLECULE>
CCCCn1c(CNC(=O)CCC)nc2ccccc21

>  <nuclei count>
124%

$$$$
>  <MOLECULE>
Cc1nc(NC(=O)C23CCC(C)(C(=O)O2)C3(C)C)sc1C (stereo not drawn)

>  <nuclei count>
105%

$$$$
>  <MOLECULE>
CCCCN(C)C(=O)CS(=O)(=O)Cc1nc(-c2cccc(OC)c2)oc1C

>  <nuclei count>
98.3%

$$$$
>  <MOLECULE>
N#Cc1ccccc1Cn1c(=O)n(Cc2ccc(C(=O)NCc3ccco3)cc2)c(=O)c2sccc21

>  <nuclei count>
120%

$$$$
>  <MOLECULE>
CCCC(=O)C1=C(N(C)c2ccccc2)CC(C)(C)C(C(=O)OC)C1=O (stereo not drawn)

>  <nuclei count>
92.5%

$$$$
>  <MOLECULE>
CCOC(=O)c1c(C)[nH]c(C(=O)COC(=O)c2ccc(F)c(S(=O)(=O)N3CCOCC3)c2)c1C

>  <nuclei count>
6.6%

$$$$
>  <MOLECULE>
O=C(CCN1C(=O)C2C3C=CC(C3)C2C1=O)NC1CCCc2ccccc21 (stereo not drawn)

>  <nuclei count>
104%

$$$$

###

assay: inhibitors of E-selectin induction by TNFa, primary screen, imaging, HUVEC, immunofluorescence, MLSMR starter and 10KST1 sets (AID 487); conditions: HUVEC TNFalpha-induced E-selectin immunofluorescence imaging, at 2 µM; stronger effect = higher value;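 note: signal is fraction of cell area covered by stained E-selectin grains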
Kind request: treat -30% as inclusive, so inhibition at -30% or higher is Satisfied, anything lower is Not satisfied.

>  <COMPOUND>
C=CCOc1nc(N(C)C)nc(N(C)C)n1

>  <DISCRETE_LABEL>
Not satisfied

$$$$
>  <COMPOUND>
Cn1cc(C2NC(=O)c3c(sc4c3CCCC4)N2)c2ccccc21 (stereo not given)

>  <DISCRETE_LABEL>
Not satisfied

$$$$
>  <COMPOUND>
O=C(NCC(=O)N(c1ccc2c(c1)OCCO2)C(C(=O)NC1CCCC1)c1ccco1)c1ccco1 (stereo not given)

>  <DISCRETE_LABEL>
Satisfied

$$$$
>  <COMPOUND>
CCN(CC)S(=O)(=O)N1CCC(C(=O)NC2CCCc3ccccc32)CC1 (stereo not given)

>  <DISCRETE_LABEL>
Satisfied

$$$$
>  <COMPOUND>
COc1ccc(C2=NOC(C(=O)NC3CCCCC3)C2)cc1OC (stereo not given)

>  <DISCRETE_LABEL>
Not satisfied

$$$$
>  <COMPOUND>
COc1ccc(C2N(C(=O)c3ccccc3)CCN2C(=O)c2ccccc2)cc1

>  <DISCRETE_LABEL>
Satisfied

$$$$
>  <COMPOUND>
OC1(c2cccc(C(F)(F)F)c2)CCN(c2ccc(-c3ccccc3)nn2)CC1

>  <DISCRETE_LABEL>
Satisfied

$$$$
>  <COMPOUND>
Cc1ccc(/C=c2\s/c(=C(/C#N)C(=O)N3CCCC3)n(Cc3ccco3)c2=O)s1

>  <DISCRETE_LABEL>
Satisfied

$$$$
>  <COMPOUND>
CCC(C)(NC(=O)CNC(C)=O)C(=O)NC1CCCCC1 (stereo not given)

>  <DISCRETE_LABEL>
Satisfied

$$$$
>  <COMPOUND>
COC(=O)C1CCN(c2nc3ccccc3nc2C(C#N)C(=O)NCCc2ccccc2)CC1 (stereo not given)

>  <DISCRETE_LABEL>
Not satisfied

$$$$

###

test: inhibitors of mutant huntingtin aggregation, primary screen, imaging, exon1htt(103Q)mCFP cells, high-content imaging (AID 483); settings: exon1htt(103Q)mCFP cell line, aggregate imaging, at 2 µM; measured here: cell count, toxicity;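 note: compound exposure lasted 3 days before fixation; percent of the per-plate median nuclei count of sample wells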
RESULT_TYPE: nuclei count (%)

>  <MOLECULE>
CCOC(=O)Cc1nnc2c(Nc3ccc(C)cc3)nc3nonc3n12

>  <RESULT_TYPE>
nuclei count

>  <OBSERVED_MEASUREMENT>
87.3

$$$$
>  <MOLECULE>
COc1ccc(NC(=O)CSc2nnc(Cc3cccn3C)n2-c2ccc(F)cc2)cc1

>  <RESULT_TYPE>
nuclei count

>  <OBSERVED_MEASUREMENT>
23.2

$$$$
>  <MOLECULE>
COCCN(Cc1cc2cc3c(cc2n2nnnc12)OCO3)C(=O)c1ccccc1F

>  <RESULT_TYPE>
nuclei count

>  <OBSERVED_MEASUREMENT>
96.5

$$$$
>  <MOLECULE>
COc1ccc(-c2oc3ncn(CCN4CCOCC4)c(=N)c3c2-c2ccc(OC)cc2)cc1

>  <RESULT_TYPE>
nuclei count

>  <OBSERVED_MEASUREMENT>
75.4

$$$$
>  <MOLECULE>
CC(=O)NCCOc1cccc(OCCNC(C)=O)c1

>  <RESULT_TYPE>
nuclei count

>  <OBSERVED_MEASUREMENT>
103

$$$$
>  <MOLECULE>
Cc1cc(C)nc(SCC(=O)Nc2ncc3c(n2)CCCC3=O)n1

>  <RESULT_TYPE>
nuclei count

>  <OBSERVED_MEASUREMENT>
98.6

$$$$
>  <MOLECULE>
O=C(c1ccco1)N1CCN(C(=O)c2sccc2-c2ccccc2)CC1

>  <RESULT_TYPE>
nuclei count

>  <OBSERVED_MEASUREMENT>
90

$$$$
>  <MOLECULE>
CS(=O)(=O)C1=C(O)C(=O)N(c2ccccc2)C1c1ccccc1 (centres undefined)

>  <RESULT_TYPE>
nuclei count

>  <OBSERVED_MEASUREMENT>
103

$$$$
>  <MOLECULE>
COc1cccc(Nc2cc(C)nc3ccccc23)c1

>  <RESULT_TYPE>
nuclei count

>  <OBSERVED_MEASUREMENT>
78.5

$$$$
>  <MOLECULE>
CSCCC(NC(=O)c1ccco1)C(=O)O (centres undefined)

>  <RESULT_TYPE>
nuclei count

>  <OBSERVED_MEASUREMENT>
105

$$$$
>  <MOLECULE>
COc1ccc(Cl)cc1NC(=O)CCN1CCN(c2ccccc2C)CC1

>  <RESULT_TYPE>
nuclei count

>  <OBSERVED_MEASUREMENT>
101

$$$$
>  <MOLECULE>
COC(=O)C1=C(C)n2nnnc2NC1c1ccc(Cl)cc1 (centres undefined)

>  <RESULT_TYPE>
nuclei count

>  <OBSERVED_MEASUREMENT>
99.4

$$$$
>  <MOLECULE>
COC(=O)c1ccc(NC2(C#N)C(=O)Nc3ccccc32)cc1 (centres undefined)

>  <RESULT_TYPE>
nuclei count

>  <OBSERVED_MEASUREMENT>
95.5

$$$$
>  <MOLECULE>
CN(C)c1ccc(CNCCC2(O)CCOC(C)(C)C2)cc1 (centres undefined)

>  <RESULT_TYPE>
nuclei count

>  <OBSERVED_MEASUREMENT>
89.5

$$$$
>  <MOLECULE>
FC(F)(F)c1cccc(N2CCN(Cc3cccnc3)CC2)c1

>  <RESULT_TYPE>
nuclei count

>  <OBSERVED_MEASUREMENT>
109

$$$$
>  <MOLECULE>
C=C(Cl)COc1ccc2c(C)cc(=O)oc2c1

>  <RESULT_TYPE>
nuclei count

>  <OBSERVED_MEASUREMENT>
71.6

$$$$
>  <MOLECULE>
Cc1c(C#N)c2ncnc(-c3ccccc3)c2n1-c1ccccc1

>  <RESULT_TYPE>
nuclei count

>  <OBSERVED_MEASUREMENT>
99.5

$$$$
>  <MOLECULE>
COCCNC(=O)c1cc(-c2cccs2)on1

>  <RESULT_TYPE>
nuclei count

>  <OBSERVED_MEASUREMENT>
116

$$$$
>  <MOLECULE>
CS(=O)(=O)N1CCC(C(=O)NCCC2=CCCCC2)CC1

>  <RESULT_TYPE>
nuclei count

>  <OBSERVED_MEASUREMENT>
100

$$$$
>  <MOLECULE>
O=C(CCN1C(=O)COc2ccccc21)NCCCN1CCN(c2ccccc2F)CC1

>  <RESULT_TYPE>
nuclei count

>  <OBSERVED_MEASUREMENT>
73.9

$$$$
>  <MOLECULE>
CCC(=O)N1CCN=C1SCc1ccc(Cl)cc1

>  <RESULT_TYPE>
nuclei count

>  <OBSERVED_MEASUREMENT>
111

$$$$
>  <MOLECULE>
CC(=O)c1ccc(NC(=O)C2CCN(S(=O)(=O)c3cccc4cccnc34)CC2)cc1

>  <RESULT_TYPE>
nuclei count

>  <OBSERVED_MEASUREMENT>
102

$$$$
>  <MOLECULE>
COc1ccc(C2N(C(=O)c3ccccc3)CCN2C(=O)c2ccccc2)cc1

>  <RESULT_TYPE>
nuclei count

>  <OBSERVED_MEASUREMENT>
71.9

$$$$
>  <MOLECULE>
O=P(O)(CN1CCCCCC1)CN1CCCCCC1

>  <RESULT_TYPE>
nuclei count

>  <OBSERVED_MEASUREMENT>
107

$$$$
